Provenance of the data: paper PMC6271891

Please respond with reported IC50 for every item in the list.
Molecular target: MMNAT (Mycobacterium marinum, UniProt B2HIZ6)
Sequence (B2HIZ6 entry or part of it): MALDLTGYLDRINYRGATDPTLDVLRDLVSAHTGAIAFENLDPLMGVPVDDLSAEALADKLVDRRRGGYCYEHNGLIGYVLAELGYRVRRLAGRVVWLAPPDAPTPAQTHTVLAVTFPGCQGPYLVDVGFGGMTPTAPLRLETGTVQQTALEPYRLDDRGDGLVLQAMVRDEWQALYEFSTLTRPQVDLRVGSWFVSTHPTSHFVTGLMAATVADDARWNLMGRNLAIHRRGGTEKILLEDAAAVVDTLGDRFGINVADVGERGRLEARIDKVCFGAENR
Test: NAT inhibition assay (CoA formation), MMNAT
Assay type: biochemical
Settings: 150 μM HLZ and 120 μM Ac-CoA; inhibitor 0–250 μM; mean ± S.D. of triplicate; read-out: MMNAT IC50 HLZ
Answers are plain numbers, in µM.

Consider the worked cases shown below.
For this compound ( O=C(c1ccccc1)C1CN(C2CCCO2)CCC1(O)c1ccccc1 (stereo not shown) [Compound 9] ), measured IC50 is 2.5

For this compound ( O=C(c1ccccc1)C1CN(C2CCS(=O)(=O)C2)CCC1(O)c1ccccc1 (stereo not shown) [Compound 10] ), measured IC50 is 13

Please give IC50, item by item, for the list that follows.
1. CN1CCC(O)(c2ccc(Cl)cc2)C(C(=O)c2ccc(Cl)cc2)C1 (stereo not shown) [Compound 2]
2. CCN1CCC(O)(c2ccccc2)C(C(=O)c2ccccc2)C1 (stereo not shown) [Compound 4]
3. CCCCN1CCC(O)(c2ccccc2)C(C(=O)c2ccccc2)C1 (stereo not shown) [Compound 6]
4. OC(CCN1CCCCC1)c1ccc2c(c1)OCO2 (stereo not shown) [Compound 15]
5. C=CCC(O)(CCN1CCOCC1)c1ccc(F)cc1 (stereo not shown) [Compound 16]

1: 0.16; 2: 1.9; 3: 2.6; 4: 1; 5: 6.4

Please give IC50, item by item, for the list that follows.
1. CCN1CCC(O)(c2ccc(F)cc2)C(C(=O)c2ccc(F)cc2)C1 (stereo not shown) [Compound 5]
2. CN1CCC(O)(c2ccc(Br)cc2)C(C(=O)c2ccc(Br)cc2)C1 (stereo not shown) [Compound 3]
3. O=C(c1ccccc1)C1CN(Cc2ccccc2)CCC1(O)c1ccccc1 (stereo not shown) [Compound 8]

1: 0.5; 2: 0.08; 3: 4.1
